Below is a list of entries, each paired with its recorded log10 of MIC50 value.
System: Streptococcus pneumoniae
Test: Antibacterial activity against penicillin-intermediate Streptococcus pneumoniae […] by agar dilution method
Assay type: functional
REPORTED PROPERTY: log10 of MIC50 (log10 of the value in µg/mL)

COMPOUND: CO/N=C1\CN(c2nc3c(cc2F)c(=O)c(C(=O)O)cn3C2CC2)CC1CN (configuration not stated) [GEMIFLOXACIN]
log10 of MIC50: -1.52

COMPOUND: C[C@H]1COc2c(N3CCN(C)CC3)c(F)cc3c(=O)c(C(=O)O)cn1c23.C[C@H]1COc2c(N3CCN(C)CC3)c(F)cc3c(=O)c(C(=O)O)cn1c23.O [LEVOFLOXACIN]
log10 of MIC50: 0.00

COMPOUND: CC[C@H]1OC(=O)[C@H](C)[C@@H](O[C@H]2C[C@@](C)(OC)[C@@H](O)[C@H](C)O2)[C@H](C)[C@@H](O[C@@H]2O[C@H](C)C[C@H](N(C)C)[C@H]2O)[C@](C)(O)C[C@@H](C)CN(C)[C@H](C)[C@@H](O)[C@]1(C)O [AZITHROMYCIN]
log10 of MIC50: -0.92

COMPOUND: CC1(C)S[C@@H]2[C@H](NC(=O)Cc3ccccc3)C(=O)N2[C@H]1C(=O)O [PENICILLIN G]
log10 of MIC50: -0.60

COMPOUND: CC[C@H]1OC(=O)[C@H](C)C(=O)[C@H](C)[C@@H](O[C@@H]2O[C@H](C)C[C@H](N(C)C)[C@H]2O)[C@](C)(OC)C[C@@H](C)C(=O)[C@H](C)[C@H]2N(CCCCn3cnc(-c4cccnc4)c3)C(=O)O[C@]12C [TELITHROMYCIN]
log10 of MIC50: -1.52

COMPOUND: COc1c(N2CC3(CC3)[C@](C)(N)C2)c(F)cc2c(=O)c(C(=O)O)cn([C@@H]3C[C@@H]3F)c12.O
log10 of MIC50: -0.92

COMPOUND: COc1c(N2CCNC(C)C2)c(F)cc2c(=O)c(C(=O)O)cn(C3CC3)c12 (configuration not stated) [GATIFLOXACIN]
log10 of MIC50: -0.30

* * *

Test system: Streptococcus pneumoniae
Test: Antibacterial activity against macrolide-, quinolone-susceptible and penicillin-intermediate Streptococcus pneumoniae HMC 100 harboring S81Y and S79Y mutation in quinolone-resistant determining regions of GyrA and ParC genes respectively after 42 passages with levofloxacin measured after 10 daily antibiotic-free subculturing by multi-step resistance selection technique
Type: functional
Kindly apply the following: 1 (yes) if MIC is less than 0.5 µg/mL, 0 (no) in every other case.

MOLECULE: COc1c(N2CCNC(C)C2)c(F)cc2c(=O)c(C(=O)O)cn(C3CC3)c12 (stereo not given) [GATIFLOXACIN]
CATEGORY: 0 (no)
--
MOLECULE: COc1c(N2C[C@@H]3CCCN[C@@H]3C2)c(F)cc2c(=O)c(C(=O)O)cn(C3CC3)c12 [MOXIFLOXACIN]
CATEGORY: 0 (no)
--
MOLECULE: CC[C@H]1OC(=O)[C@H](C)[C@@H](O[C@H]2C[C@@](C)(OC)[C@@H](O)[C@H](C)O2)[C@H](C)[C@@H](O[C@@H]2O[C@H](C)C[C@H](N(C)C)[C@H]2O)[C@](C)(O)C[C@@H](C)CN(C)[C@H](C)[C@@H](O)[C@]1(C)O [AZITHROMYCIN]
CATEGORY: 1 (yes)
--
MOLECULE: COc1c(N2CC3(CC3)[C@](C)(N)C2)c(F)cc2c(=O)c(C(=O)O)cn([C@@H]3C[C@@H]3F)c12.O
CATEGORY: 0 (no)

* * *

Tested on: Streptococcus pneumoniae
Assay: Antibacterial activity against penicillin-intermediate Streptococcus pneumoniae […] by agar dilution method
Format: functional

SMILES TEXT: CC1(C)S[C@@H]2[C@H](NC(=O)Cc3ccccc3)C(=O)N2[C@H]1C(=O)O
MIC90: 1 µg/mL

SMILES TEXT: COc1c(N2CC3(CC3)[C@](C)(N)C2)c(F)cc2c(=O)c(C(=O)O)cn([C@@H]3C[C@@H]3F)c12.O
MIC90: 0.12 µg/mL

SMILES TEXT: CC[C@H]1OC(=O)[C@H](C)C(=O)[C@H](C)[C@@H](O[C@@H]2O[C@H](C)C[C@H](N(C)C)[C@H]2O)[C@](C)(OC)C[C@@H](C)C(=O)[C@H](C)[C@H]2N(CCCCn3cnc(-c4cccnc4)c3)C(=O)O[C@]12C
MIC90: 0.12 µg/mL

* * *

Below is a list of entries, each paired with its recorded MIC value.
Test system: Streptococcus pneumoniae
Test: Antibacterial activity against macrolide-, quinolone-susceptible and penicillin-intermediate Streptococcus pneumoniae HMC 99 after 50 passages by broth microdilution method
Type: functional
REPORTED PROPERTY: MIC (µg/mL)

MOLECULE: CC[C@H]1OC(=O)[C@H](C)[C@@H](O[C@H]2C[C@@](C)(OC)[C@@H](O)[C@H](C)O2)[C@H](C)[C@@H](O[C@@H]2O[C@H](C)C[C@H](N(C)C)[C@H]2O)[C@](C)(O)C[C@@H](C)CN(C)[C@H](C)[C@@H](O)[C@]1(C)O
U: µg/mL
ENDPOINT RESULT: 0.06
//
MOLECULE: COc1c(N2CC3(CC3)[C@](C)(N)C2)c(F)cc2c(=O)c(C(=O)O)cn([C@@H]3C[C@@H]3F)c12.O
U: µg/mL
ENDPOINT RESULT: 0.125
//
MOLECULE: COc1c(N2CCNC(C)C2)c(F)cc2c(=O)c(C(=O)O)cn(C3CC3)c12 (centres undefined)
U: µg/mL
ENDPOINT RESULT: 0.5
//
MOLECULE: CO/N=C1\CN(c2nc3c(cc2F)c(=O)c(C(=O)O)cn3C2CC2)CC1CN (centres undefined)
U: µg/mL
ENDPOINT RESULT: 0.125

* * *

Below is a list of entries, each paired with its recorded MIC value.
System: Streptococcus pneumoniae
Assay: Antibacterial activity against quinolone-susceptible and penicillin-intermediate Streptococcus pneumoniae HMC 441 expressing ermB by broth microdilution method
Assay type: functional

COMPOUND: CC[C@H]1OC(=O)[C@H](C)[C@@H](O[C@H]2C[C@@](C)(OC)[C@@H](O)[C@H](C)O2)[C@H](C)[C@@H](O[C@@H]2O[C@H](C)C[C@H](N(C)C)[C@H]2O)[C@](C)(O)C[C@@H](C)CN(C)[C@H](C)[C@@H](O)[C@]1(C)O
MIC: > 64 µg/mL

COMPOUND: COc1c(N2C[C@@H]3CCCN[C@@H]3C2)c(F)cc2c(=O)c(C(=O)O)cn(C3CC3)c12
MIC: 0.12 µg/mL

COMPOUND: COc1c(N2CCNC(C)C2)c(F)cc2c(=O)c(C(=O)O)cn(C3CC3)c12 (stereo not given)
MIC: 0.25 µg/mL

COMPOUND: CO/N=C1\CN(c2nc3c(cc2F)c(=O)c(C(=O)O)cn3C2CC2)CC1CN (stereo not given)
MIC: 0.016 µg/mL

COMPOUND: COc1c(N2CC3(CC3)[C@](C)(N)C2)c(F)cc2c(=O)c(C(=O)O)cn([C@@H]3C[C@@H]3F)c12.O
MIC: 0.12 µg/mL

* * *

Test system: Streptococcus pneumoniae
Test: Antibacterial activity against Streptococcus pneumoniae HMC 1146 harboring S81F mutation in quinolone-resistant determining regions of GyrA gene, and D435N mutation in QRDR of ParE gene by agar dilution method
Format: functional

MOLECULE: COc1c(N2CC3(CC3)[C@](C)(N)C2)c(F)cc2c(=O)c(C(=O)O)cn([C@@H]3C[C@@H]3F)c12.O
SYSTEM TESTED: Streptococcus pneumoniae
MIC (µg/mL): 1

MOLECULE: O=C(O)c1cn(C2CC2)c2cc(N3CCNCC3)c(F)cc2c1=O
SYSTEM TESTED: Streptococcus pneumoniae
MIC (µg/mL): 32

MOLECULE: COc1c(N2CCNC(C)C2)c(F)cc2c(=O)c(C(=O)O)cn(C3CC3)c12 (stereo not given)
SYSTEM TESTED: Streptococcus pneumoniae
MIC (µg/mL): 4

MOLECULE: COc1c(N2C[C@@H]3CCCN[C@@H]3C2)c(F)cc2c(=O)c(C(=O)O)cn(C3CC3)c12
SYSTEM TESTED: Streptococcus pneumoniae
MIC (µg/mL): 2

MOLECULE: CO/N=C1\CN(c2nc3c(cc2F)c(=O)c(C(=O)O)cn3C2CC2)CC1CN (stereo not given)
SYSTEM TESTED: Streptococcus pneumoniae
MIC (µg/mL): 0.5
